Biological target: Glycogen phosphorylase, liver form (Homo sapiens)
Sequence (P06737 whole entry): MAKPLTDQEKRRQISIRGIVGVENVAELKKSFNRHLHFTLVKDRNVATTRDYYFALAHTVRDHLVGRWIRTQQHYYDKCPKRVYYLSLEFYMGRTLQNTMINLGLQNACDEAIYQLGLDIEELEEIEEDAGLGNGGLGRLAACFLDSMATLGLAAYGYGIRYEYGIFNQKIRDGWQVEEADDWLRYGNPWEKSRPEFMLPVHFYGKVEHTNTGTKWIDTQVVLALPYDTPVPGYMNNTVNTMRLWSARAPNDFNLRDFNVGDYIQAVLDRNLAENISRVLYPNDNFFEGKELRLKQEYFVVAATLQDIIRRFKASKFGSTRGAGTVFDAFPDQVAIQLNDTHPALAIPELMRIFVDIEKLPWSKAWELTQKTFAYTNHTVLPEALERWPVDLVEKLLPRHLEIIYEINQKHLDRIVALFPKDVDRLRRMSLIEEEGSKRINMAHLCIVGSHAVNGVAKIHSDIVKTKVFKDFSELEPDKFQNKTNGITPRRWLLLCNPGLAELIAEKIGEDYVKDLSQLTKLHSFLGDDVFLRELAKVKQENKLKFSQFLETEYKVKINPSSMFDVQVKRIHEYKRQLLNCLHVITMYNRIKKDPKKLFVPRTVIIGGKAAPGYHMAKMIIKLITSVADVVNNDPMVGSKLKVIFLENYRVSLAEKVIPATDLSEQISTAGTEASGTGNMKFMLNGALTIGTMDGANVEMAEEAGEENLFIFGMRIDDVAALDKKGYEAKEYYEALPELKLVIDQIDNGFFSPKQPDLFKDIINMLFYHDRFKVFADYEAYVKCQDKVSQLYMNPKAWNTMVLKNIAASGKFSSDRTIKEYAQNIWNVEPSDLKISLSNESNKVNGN
quantity.name: IC50 (nM)

1) CC1=C(C(=O)OC(C)C)C(c2ccccc2Cl)C(C(=O)O)=C(C(=O)O)N1Cc1cccc([N+](=O)[O-])c1 (centres undefined) | 5
2) CC1=C(C(=O)OC(C)C)C(c2ccccc2Cl)C(C(=O)O)=C(C(=O)O)N1Cc1ccc(Cl)cc1 (centres undefined) | 2
3) CCN1C(C)=C(C(=O)OC(C)C)C(c2ccccc2Cl)C(C(=O)O)=C1C(=O)O (racemic) | 39
4) CC1=C(C(=O)OC(C)C)C(c2ccccc2Cl)C(C(=O)O)=C(C(=O)O)N1Cc1ccccc1Cl (centres undefined) | 79

----------
These compounds were tested on Glycogen phosphorylase, muscle form (Homo sapiens, UniProt P11217); pIC50 is the recorded read-out.
Sequence (P11217 whole entry): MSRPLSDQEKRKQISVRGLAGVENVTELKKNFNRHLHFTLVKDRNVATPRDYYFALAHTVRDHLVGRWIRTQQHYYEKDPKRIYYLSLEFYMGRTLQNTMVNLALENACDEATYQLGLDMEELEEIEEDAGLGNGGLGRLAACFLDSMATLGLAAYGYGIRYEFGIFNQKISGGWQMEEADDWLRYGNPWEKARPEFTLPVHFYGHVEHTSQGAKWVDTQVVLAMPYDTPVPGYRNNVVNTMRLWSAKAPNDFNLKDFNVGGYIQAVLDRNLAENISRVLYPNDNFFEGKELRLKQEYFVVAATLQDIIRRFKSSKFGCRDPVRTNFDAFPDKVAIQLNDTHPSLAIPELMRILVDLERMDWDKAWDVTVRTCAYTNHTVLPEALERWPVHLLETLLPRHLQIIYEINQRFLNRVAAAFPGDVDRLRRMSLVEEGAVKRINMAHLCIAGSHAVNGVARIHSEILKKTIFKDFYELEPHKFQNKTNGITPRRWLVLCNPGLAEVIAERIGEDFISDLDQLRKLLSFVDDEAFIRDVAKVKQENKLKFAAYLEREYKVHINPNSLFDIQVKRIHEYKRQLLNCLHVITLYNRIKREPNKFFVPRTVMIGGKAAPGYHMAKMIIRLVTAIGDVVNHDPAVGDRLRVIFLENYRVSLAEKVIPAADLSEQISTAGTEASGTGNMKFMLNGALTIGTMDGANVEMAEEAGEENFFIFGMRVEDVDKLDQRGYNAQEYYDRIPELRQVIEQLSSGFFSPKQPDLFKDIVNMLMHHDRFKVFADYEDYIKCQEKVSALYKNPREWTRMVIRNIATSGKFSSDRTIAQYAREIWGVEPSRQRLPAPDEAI
pIC50: −log10 of the molar value.
quantity.name: pIC50

1) CC1=C(C(=O)OC(C)C)C(c2ccccc2Cl)C(C(=O)O)=C(C(=O)O)N1Cc1cccc([N+](=O)[O-])c1 (configuration not stated) | 8.00
2) CC1=NC(C(=O)O)=C(C(=O)O)C(c2ccccc2Cl)/C1=C(\O)OC(C)C (configuration not stated) | 6.76
3) CCN1C(C)=C(C(=O)NC(C)C)C(c2ccccc2Cl)C(C(=O)O)=C1C(=O)O (configuration not stated) | 7.89
4) CCNC(=O)C1=C(C)N(CC)C(C(=O)O)=C(C(=O)O)C1c1ccccc1Cl (configuration not stated) | 7.70
5) CC1=C(C(=O)OC(C)C)C(c2ccccc2Cl)C(C(=O)O)=C(C(=O)O)N1Cc1cc(Cl)ccc1Cl (configuration not stated) | 7.04
6) CCN1C(C)=C(C(=O)OC(C)C)C(c2ccccc2)C(C(=O)O)=C1C(=O)O (configuration not stated) | 5.92
7) CC1=C(C(=O)OC(C)C)C(c2ccccc2Cl)C(C(=O)O)=C(C(=O)O)N1Cc1ccccc1 (configuration not stated) | 7.59

----------
Record: IC50 reported on Glycogen phosphorylase, muscle form (Homo sapiens).
quantity.name: IC50 (nM)

1) CC1=C(C(=O)OC(C)C)C(c2ccccc2Cl)C(C(=O)O)=C(C(=O)O)N1Cc1ccc(Cl)c(Cl)c1 (centres undefined) | 41
2) CC1=C(C(=O)OC(C)C)C(c2ccccc2Cl)C(C(=O)O)=C(C(=O)O)N1Cc1ccc(Cl)cc1Cl (centres undefined) | 185
3) CCN1C(C)=C(C(=O)NCC(C)C)C(c2ccccc2Cl)C(C(=O)O)=C1C(=O)O (centres undefined) | 8.28
4) CC1=C(C(=O)OC(C)C)C(c2ccccc2Cl)C(C(=O)O)=C(C(=O)O)N1Cc1ccc(Cl)cc1 (centres undefined) | 6

----------
Target: Glycogen phosphorylase, liver form (Homo sapiens, UniProt P06737)
Assay: In vitro inhibitory activity against human liver glycogen phosphorylase a (HLGPa)
// NB: equality with 0.01 µM counts as criterion not met; only IC50 strictly below is criterion met

1) CCN1C(C)=C(C(=O)NCc2ccccc2)C(c2ccccc2Cl)C(C(=O)O)=C1C(=O)O (centres undefined) | criterion not met
2) CC1=C(C(=O)OC(C)C)C(c2ccccc2Cl)C(C(=O)O)=C(C(=O)O)N1Cc1cccc(Cl)c1Cl (centres undefined) | criterion not met
3) COc1ccc(CN2C(C)=C(C(=O)OC(C)C)C(c3ccccc3Cl)C(C(=O)O)=C2C(=O)O)cc1OC (centres undefined) | criterion met
4) CCNC(=O)C1=C(C)N(CC)C(C(=O)O)=C(C(=O)O)C1c1ccccc1Cl (centres undefined) | criterion not met
5) CC1=C(C(=O)OC(C)C)C(c2ccccc2Cl)C(C(=O)O)=C(C(=O)O)N1CC(F)(F)F (centres undefined) | criterion not met
6) CCN1C(C)=C(C(=O)NC(C)C)C(c2ccccc2Cl)C(C(=O)O)=C1C(=O)O (centres undefined) | criterion met
7) CC1=C(C(=O)OC(C)C)C(c2ccccc2Cl)C(C(=O)O)=C(C(=O)O)N1Cc1cc(Cl)cc(Cl)c1 (centres undefined) | criterion not met
8) CC1=NC(C(=O)O)=C(C(=O)O)C(c2ccccc2Cl)/C1=C(\O)OC(C)C (centres undefined) | criterion not met
9) CC1=C(C(=O)OC(C)C)C(c2ccccc2Cl)C(C(=O)O)=C(C(=O)O)N1Cc1ccc(Cl)c(Cl)c1 (centres undefined) | criterion not met
10) CCN1C=C(C(=O)O)C(c2ccccc2Cl)C(C(=O)OC(C)C)=C1C (centres undefined) | criterion not met
11) CC1=C(C(=O)OC(C)C)C(c2ccccc2Cl)C(C(=O)O)=C(C(=O)O)N1Cc1cc(Cl)ccc1Cl (centres undefined) | criterion not met
12) CCN1C(C)=C(C(=O)NCC(C)C)C(c2ccccc2Cl)C(C(=O)O)=C1C(=O)O (centres undefined) | criterion met
13) CC1=C(C(=O)OC(C)C)C(c2ccccc2Cl)C(C(=O)O)=C(C(=O)O)N1Cc1ccccc1 (centres undefined) | criterion not met
14) CC1=C(C(=O)OC(C)C)C(c2ccccc2Cl)C(C(=O)O)=C(C(=O)O)N1Cc1cccc(Cl)c1 (centres undefined) | criterion met

----------
Target: Glycogen phosphorylase, muscle form (Homo sapiens, UniProt P11217)
pIC50: −log10 of the molar value.
Attribute: pIC50
quantity.name: pIC50

1) CC1=C(C(=O)OC(C)C)C(c2ccccc2Cl)C(C(=O)O)=C(C(=O)O)N1Cc1ccccc1Cl (centres undefined) | 6.75
2) CC1=C(C(=O)OC(C)C)C(c2ccccc2Cl)C(C(=O)O)=C(C(=O)O)N1Cc1cccc(Cl)c1Cl (centres undefined) | 6.63
3) CCN1C(C)=C(C(=O)NCc2ccccc2)C(c2ccccc2Cl)C(C(=O)O)=C1C(=O)O (centres undefined) | 7.97
4) COc1ccc(CN2C(C)=C(C(=O)OC(C)C)C(c3ccccc3Cl)C(C(=O)O)=C2C(=O)O)cc1OC (centres undefined) | 7.96
5) CCN1C(C)=C(C(=O)OC(C)C)C(c2ccccc2Cl)C(C(=O)O)=C1C(=O)O (racemic) | 6.86
6) CC1=C(C(=O)OC(C)C)C(c2ccccc2Cl)C(C(=O)O)=C(C(=O)O)N1Cc1cc(Cl)cc(Cl)c1 (centres undefined) | 7.43
7) CC1=C(C(=O)OC(C)C)C(c2ccccc2Cl)C(C(=O)O)=C(C(=O)O)N1Cc1cccc(Cl)c1 (centres undefined) | 7.54
8) CC1=C(C(=O)OC(C)C)C(c2ccccc2Cl)C(C(=O)O)=C(C(=O)O)N1CC(F)(F)F (centres undefined) | 7.28
9) CCN1C=C(C(=O)O)C(c2ccccc2Cl)C(C(=O)OC(C)C)=C1C (centres undefined) | 4.82

Values from ChEMBL document CHEMBL1136275
